Each recorded value in this set is attributed to patent US20110059490.

- system: Thermococcus sp. DNA polymerase (R671E/K677E/K712E)/N210D R671E,K677E,K712E,N210D (Thermococcus sp.)
- measurement-protocol: EMSA
- conditions: EMSA as for Taq, 1x TAE with 2 mM EDTA
assay-metric: pKd
In simple prose, pKd is minus the logarithm base ten of a concentration in moles per litre.

TTTTAGCCGCTAGAGTCGACCTGC [24 nt primer] ... 5.64

Turning now to a further record.
# pKd lookup, item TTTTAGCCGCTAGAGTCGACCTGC / GGAGACAAGCTTGTATGCCTGCAGGTCGACTCTAGCGGCTAAAA [24/44 nt template-primer duplex]
6.33
